- experimental_setup: 323.15 K; 65000 kPa; Liquid; Vibrating tube method
measure_name: mass density (kg/m3)

CC(C)C(C)C :: 694.58
CCC(C)CC :: 695.87
CCC(C)(C)C :: 685.35
CCCC(C)C :: 686.56

----------
- experimental_setup: 303.15 K; 7000 kPa; Liquid; Vibrating tube method
measure_name: mass density (kg/m3)

CCC(C)CC [3-methylpentane] :: 662.86
CCCC(C)C [2-methylpentane] :: 652.12
CCC(C)(C)C [2,2-dimethylbutane] :: 648.58
CC(C)C(C)C [2,3-dimethylbutane] :: 660.39

----------
- experimental_setup: 303.15 K; 2000 kPa; Liquid; Vibrating tube method
measure_name: mass density (kg/m3)

CCC(C)(C)C [2,2-dimethylbutane] :: 642.26
CCC(C)CC [3-methylpentane] :: 657.33
CCCC(C)C [2-methylpentane] :: 646.27
CC(C)C(C)C [2,3-dimethylbutane] :: 654.73
